Molecular target: AMP-activated protein kinase, AMPK (Homo sapiens) (UniProt P54646+O43741+P54619+Q9UGJ0+Q9Y478+Q13131+Q9UGI9)
Test: Activation of AMPK in human HepG2 cells assessed as induction of glucose consumption at 10 uM treated over 24 hrs by glucose oxidase method relative to control
Format: cell-based
Consider the following compounds and their measured Activity readings.
Respond numerically; units are % and should not be typed.

Worked cases, answers included:
> print(dat)
                                   compound  property  unit.name  observed.result
1  O=C(O)c1ccccc1-c1ccc(Cn2c3c(c4cc(OCc5ccccc5)ccc42)CC(C(=O)O)CC3)cc1 (stereo not given)  Activity          %             27.5
2  O=C(O)C1CCc2c(c3cc(OCc4ccccc4)ccc3n2C(=O)c2ccc(F)cc2)C1 (stereo not given)  Activity          %             75.2

Now examine the next entry.
Form field Activity, entry O=C(O)C1CCc2c(c3cc(OCc4ccccc4)ccc3n2Cc2ccc(F)cc2)C1 (stereo not given) : 34.3

* * *

Test system: Mus musculus
Assay: Toxicity in db/db mouse assessed as increase in body weight at 30 mg/kg, po treated for 1 to 3 weeks measured at 3 hrs post last dose relative to control
Format: organism-based
Conditions: in vivo
property: Activity (%)
Respond numerically; units are % and should not be typed.

> print(dat)
                                   molecule  tested.system  property  observed.result
1  Cc1c(CC(=O)O)c2cc(OCc3ccccc3)ccc2n1C(=O)c1ccc(Cl)cc1   Mus musculus  Activity              8.5

CCc1ccc(CCOc2ccc(CC3SC(=O)NC3=O)cc2)nc1 (stereo not drawn) [PIOGLITAZONE] on Mus musculus gives Activity = 16.3

O=C(O)C1CCc2c(c3cc(OCc4ccccc4)ccc3n2C(=O)c2ccc(Cl)cc2)C1 (stereo in doubt; 7a) on Mus musculus gives Activity = 10.4

Each recorded value in this set is attributed to ChEMBL document CHEMBL4196071.
